Data origin, for the record: the MegaScale stability set (Tsuboyama et al. 2023)

B1: EEHEE_rd4_0763 (parent)
chain: LTVHVGNVTYHFDNPEQAEEWAKRMAKKYQGQIHVKDGQFRIE

- Variants of: B1
- protocol.notes: folding stability dG (cDNA display proteolysis); higher = more stable
- test.settings: PBS, room temperature
experimental.readout: folding stability dG (kcal/mol)
Give the value, in units of kcal/mol, as a plain number.

Examples from the recorded data:
{"mutations": "F40S", "experimental.readout": "folding stability dG", "measured.number": 1.03}
{"mutations": "V3N", "experimental.readout": "folding stability dG", "measured.number": 0.243}
{"mutations": "W21C", "experimental.readout": "folding stability dG", "measured.number": 2.55}

(Q) Given the entry A26M , report its measured folding stability dG.
(A) 1.28

(Q) Please do the same for N7A as well.
(A) 1.6

(Q) Please do the same for D13T as well.
(A) 1.74
